target: Human Factor D (Homo sapiens (Human), UniProt P00746); assay: Human Factor D assay; format: biochemical; conditions: Table 4; Factor D inhibition, substrate Z-L-Lys-SBzl
Sequence (P00746 26-253): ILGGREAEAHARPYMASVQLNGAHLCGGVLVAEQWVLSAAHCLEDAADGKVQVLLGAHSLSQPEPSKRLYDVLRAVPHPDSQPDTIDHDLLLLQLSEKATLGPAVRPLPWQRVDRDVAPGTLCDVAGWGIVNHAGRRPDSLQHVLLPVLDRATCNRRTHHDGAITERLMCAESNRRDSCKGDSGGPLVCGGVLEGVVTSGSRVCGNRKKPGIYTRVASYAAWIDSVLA
pIC50: −log10 of the molar value.
Consider the following molecules; for each one, report its pIC50.

**Q:** Data request, read-out pIC50, for CC(=O)c1nn(CC(=O)N2C[C@H](F)C[C@H]2C(=O)Nc2nc(Br)ccc2C)c2ccc(-c3cnc(N)nc3)cc12
**A:** > 6.00

**Q:** Data request, read-out pIC50, for Cc1cccc(NC(=O)[C@@H]2CCC(F)CCN2C(=O)Cn2cc(C(N)=O)c3cc(-c4cccnc4)ccc32)n1 (stereo partly shown)
**A:** < 5.00

**Q:** Data request, read-out pIC50, for CC(=O)c1nn(CC(=O)N2C[C@H](F)C[C@H]2[C@H](O)Cc2cccc(Br)n2)c2ccc(-c3cnc(C)nc3)cc12
**A:** 5.00 to 6.00

**Q:** Data request, read-out pIC50, for CC(=O)c1nn(CC(=O)N2C[C@H](F)C[C@H]2CC(=O)O)c2ccc(-c3cnc(C)nc3)cc12
**A:** < 5.00

**Q:** Data request, read-out pIC50, for Cc1ncc(-c2ccc3c(c2)c(C(C)O)nn3CC(=O)N2C[C@H](F)C[C@H]2C(=O)O)cn1 (stereo partly shown)
**A:** < 5.00

**Q:** Data request, read-out pIC50, for COC(=O)[C@@H]1C[C@@H](F)CN1C(=O)Cn1nc(C(C)O)c2cc(-c3cnc(C)nc3)ccc21 (stereo partly shown)
**A:** < 5.00

**Q:** Data request, read-out pIC50, for Cc1cccc(NC(=O)[C@@H]2CCC(F)CCN2C(=O)Cn2cc(C(N)=O)c3cc(-c4ccc5c(c4)CCCC5)ccc32)n1 (stereo partly shown)
**A:** < 5.00

These entries and their values trace back to patent US11407738B2.
